- target-or-system: CK2A1 (CK2α/β) (Homo sapiens)
- Sequence (P68400 whole entry, species assumed): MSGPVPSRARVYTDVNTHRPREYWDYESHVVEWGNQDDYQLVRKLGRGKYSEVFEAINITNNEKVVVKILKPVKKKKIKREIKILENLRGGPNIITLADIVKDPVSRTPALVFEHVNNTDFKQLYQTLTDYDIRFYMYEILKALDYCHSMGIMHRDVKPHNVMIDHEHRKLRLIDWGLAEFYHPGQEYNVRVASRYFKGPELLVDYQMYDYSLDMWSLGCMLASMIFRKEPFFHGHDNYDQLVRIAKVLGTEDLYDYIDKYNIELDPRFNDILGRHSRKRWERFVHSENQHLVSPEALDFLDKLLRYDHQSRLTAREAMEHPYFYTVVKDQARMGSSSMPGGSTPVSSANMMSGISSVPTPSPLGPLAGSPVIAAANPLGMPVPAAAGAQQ
- Sequence (P67870 whole entry partner, species assumed): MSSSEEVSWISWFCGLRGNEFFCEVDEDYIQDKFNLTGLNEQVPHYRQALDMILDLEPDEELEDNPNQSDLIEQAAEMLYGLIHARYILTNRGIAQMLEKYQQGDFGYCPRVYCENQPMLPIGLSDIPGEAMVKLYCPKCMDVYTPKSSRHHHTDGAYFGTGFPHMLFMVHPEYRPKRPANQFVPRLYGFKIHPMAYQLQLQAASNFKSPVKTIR
- assay-details: CK2 kinase assay, CK2A1 (CK2α/β)
- Type: biochemical
- measurement-conditions: Table A; read-out: CK2A1 (CK2α/β) (IC50)
pIC50 values for the compounds below.
Entry type: numeric. Quantity: pIC50, the -log10 of concentration in molar units.

Below, 3 compounds whose answers are already recorded.
compound | measured-result
N#Cc1cc(Nc2nc(NC3CC3)c3ncc(C#N)n3n2)c(Cl)c(N2CCN(C3CCC3=O)CC2)c1 (stereo not shown) [Example 62] | 8.52
N#Cc1cc(Nc2nc(NC3CC3)c3ncc(C#N)n3n2)c(Cl)c(N2CCC(N[C@@H]3CCCC[C@H]3F)CC2)c1 (racemic) [Example 128] | 8.32
CC(C)(O)C(=O)N1CCC(c2cc(C#N)cc(Nc3nc(NC4CC4)c4ncc(C#N)n4n3)c2Cl)CC1 [Example 231] | 9.35

### Prompt Return pIC50 measured with CK2A1 (CK2α/β) (Homo sapiens) given this compound: C[N+]1(C)CCN(C2CN(c3cc(C#N)cc(Nc4nc(NC5CC5)c5ncc(C#N)n5n4)c3Cl)C2)CC1 [Example 170]
### Response 9.03

### Prompt Return pIC50 measured with CK2A1 (CK2α/β) (Homo sapiens) given this compound: CC1(O)CCN(C2CN(c3cc(C#N)cc(Nc4nc(NC5CC5)c5ncc(C#N)n5n4)c3Cl)C2)CC1 [Example 157]
### Response 9.10

### Prompt Return pIC50 measured with CK2A1 (CK2α/β) (Homo sapiens) given this compound: CC(=O)N1CC(N2CCC(O)(c3cc(C#N)cc(Nc4nc(NC5CC5)c5ncc(C#N)n5n4)c3Cl)CC2)C1 [Example 650]
### Response 8.96

### Prompt Return pIC50 measured with CK2A1 (CK2α/β) (Homo sapiens) given this compound: N#Cc1cc(Nc2nc(NC3CC3)c3ncc(C#N)n3n2)c(Cl)c(OCC2CNCCO2)c1 (stereo not shown) [Example 441]
### Response 8.93

### Prompt Return pIC50 measured with CK2A1 (CK2α/β) (Homo sapiens) given this compound: CC(C)(O)CN1CC(N2CCC(c3cc(C#N)cc(Nc4nc(NC5CC5)c5ncc(C#N)n5n4)c3Cl)CC2)C1 [Example 324]
### Response 9.11
